# Test system: SF-295 CNS
# ASSAY: NCI tumour cell line growth inhibition, 48 h

COMPOUND: COc1ccc(C(C)c2cc(OC)c(OC)c(OC)c2)cc1 (stereo not given)
GI50: 0.0752 µM
--
COMPOUND: Cc1ccc(C(=O)NCCCOc2ccc(N3C(N)=NC(N)=NC3(C)C)cc2Cl)cc1S(=O)(=O)F
GI50: > 100 µM
--
COMPOUND: O=C1Nc2cc(-c3cccc(O)c3)ccc2/C1=C/c1ccc[nH]1
GI50: 2.34 µM
--
COMPOUND: CCCCCCCCCC[C@@H](O)[C@@H]1CC[C@@H]([C@@H]2CC[C@@H]([C@@H](O)CCCCCCCCCC[C@H](O)CC3=CC(C)OC3=O)O2)O1 (stereo not given in full)
GI50: 0.686 µM
--
COMPOUND: C=C1c2ccccc2C(=O)c2c1c1c(C(=O)OC)c(OC(=O)OCc3ccc([N+](=O)[O-])cc3)ccc1n2Cc1ccccc1
GI50: 33.7 µM
--
COMPOUND: O=[N+]([O-])c1cccc(-c2nc(-c3ccc(Cl)cc3Cl)cn2-c2ccccc2)c1
GI50: 0.452 µM
--
COMPOUND: N#Cc1cnc2cc(OC[C@@H](O)CO)c(NC(=O)C3CCCC3)cc2c1Nc1ccc(OCc2cccc(F)c2)c(Cl)c1
GI50: 3.78 µM
--
COMPOUND: Cc1c(Cl)c(=O)oc2cc(OC/C=C3\CCC(=O)O3)ccc12
GI50: 62.9 µM
--
COMPOUND: O=S(=O)(NCCNc1nccc(-c2c(-c3ccc(F)c(O)c3)nc3sccn23)n1)c1ccc(Cl)cc1
GI50: 2.35 µM
--
COMPOUND: CNCC/C=C1\c2cc3c(cc2-c2c1c1cc(OC)c(OC)cc1c(=O)n2C)OCO3
GI50: 0.0811 µM
--
COMPOUND: NCCCOc1cc2ccccc2cc1C(=O)Nc1ccc(Cl)cc1OC(=O)c1cc2ccccc2cc1OCCCN
GI50: 0.516 µM
--
COMPOUND: [N-]=[N+]=NCCCn1c2c(c3ccc([N+](=O)[O-])cc3c1=O)C(=O)c1cc3c(cc1-2)OCO3
GI50: < 0.012 µM
--
COMPOUND: COc1cccc(-c2nn(-c3ccccc3)cc2-c2ccnc(NCCCNC(=O)c3cccc(C(F)(F)F)c3)c2)c1
GI50: 3.32 µM
--
COMPOUND: CNC(=O)c1cc(Oc2cccc3nc(NC(=O)Nc4cc(C(F)(F)F)cc(C(F)(F)F)c4)ccc23)ccn1
GI50: 3.69 µM
--
COMPOUND: Nc1c(C(=O)Nc2ccccn2)sc2nc3c(cc12)C(O)CCC3 (stereo not given)
GI50: 1.74 µM
--
COMPOUND: Cc1ccc(Nc2cc(Cl)c([N+](=O)[O-])cc2[N+](=O)[O-])cc1
GI50: 14.4 µM
--
COMPOUND: CCOC(=O)C(Cc1c[nH]c2cc(N(CCO)CCO)ccc12)(NC(C)=O)C(=O)OCC
GI50: > 1000 µM
--
COMPOUND: CCC1C(C)C=NN1c1nc(N)nc(C(C#N)=Nc2ccc(N(C)C)cc2)n1 (stereo not given)
GI50: 8.96 µM
--
COMPOUND: CC(=O)Oc1ccc2c(c1)[C@@]1(C)CCCC(C)(C)[C@@H]1CC2
GI50: 19.1 µM
--
COMPOUND: CCCOc1cc2ccccc2cc1C(=O)Nc1nc(NC)c2c(ccc3nccc32)[nH]1
GI50: 0.0866 µM

These entries and their values trace back to PubChem BioAssay (NCI).
